Overview of reported IC50 across a group of compounds:
Test system: Balb/c 3T3 cells
experiment summary: MTT cell survival assay, Balb/c 3T3 cells (normal reference)
Assay type: cell-based, murine
study conditions: Mus musculus, BALB/c3T3, 72 h
property: IC50

[
  {
    "compound": "CC(=O)N1CCC(c2ccc(F)cc2)C(COc2ccc3c(c2)OCO3)C1 (stereo not drawn) [N-Ac-Paroxetine, reference compound]",
    "measured target": "Balb/c 3T3 cells",
    "result": "66.2 µM"
  },
  {
    "compound": "COCCCC/C(=N\\OCCNC(C)=O)c1ccc(C(F)(F)F)cc1 [N-Ac-Fluvoxamine, reference compound]",
    "measured target": "Balb/c 3T3 cells",
    "result": "136 µM"
  },
  {
    "compound": "COc1ccc2cccc(N3CCN(CCNC(=O)c4ccc(F)cc4)CC3)c2c1.Cl [Compound S14506, reference compound]",
    "measured target": "Balb/c 3T3 cells",
    "result": "20.6 µM"
  }
]

====

Tested on: PC-3 cells
experiment summary: cAMP level in PC-3 prostate cancer cells
Type: cell-based
study conditions: Homo sapiens, 1 µM forskolin, read-out: cAMP biochemical pathway IC50
pIC50: −log10 of the molar value.
property: pIC50

[
  {
    "molecule": "COc1ccc2cccc(N3CCN(CCNC(=O)c4ccc(F)cc4)CC3)c2c1.Cl [Compound S14506, reference compound]",
    "numeric value": 6.49
  }
]

====

System: Balb/c 3T3 cells
experiment summary: MTT cell survival assay, Balb/c 3T3 cells (normal reference)
Assay type: cell-based, murine
study conditions: Mus musculus, BALB/c3T3, 72 h
Listed compounds paired with reported IC50
property: IC50 (µM)

[
  {
    "compound": "CCCCCCCCN1CCN(c2ccc3cc([N+](=O)[O-])ccc3n2)CC1.Cl [KW117]",
    "numeric value": 38.1
  },
  {
    "compound": "COc1ccccc1N1CCN(CCN(C(=O)C2CCCCC2)c2ccccn2)CC1 [WAY100635, reference compound]",
    "numeric value": 88
  },
  {
    "compound": "Fc1ccc([C@@H]2CCNC[C@H]2COc2ccc3c(c2)OCO3)cc1 [Paroxetine, paroxetine, reference compound]",
    "numeric value": 14.9
  },
  {
    "compound": "COCCCC/C(=N\\OCCN)c1ccc(C(F)(F)F)cc1 [Fluvoxamine, fluvoxamine, reference compound]",
    "numeric value": 52
  }
]

====

Reported EC50 is given for each of the following compounds.
measured target: 5-HT1A receptor (Homo sapiens)
Construct: EGFP; expressed in transfected cells
Sequence (P08908 whole entry): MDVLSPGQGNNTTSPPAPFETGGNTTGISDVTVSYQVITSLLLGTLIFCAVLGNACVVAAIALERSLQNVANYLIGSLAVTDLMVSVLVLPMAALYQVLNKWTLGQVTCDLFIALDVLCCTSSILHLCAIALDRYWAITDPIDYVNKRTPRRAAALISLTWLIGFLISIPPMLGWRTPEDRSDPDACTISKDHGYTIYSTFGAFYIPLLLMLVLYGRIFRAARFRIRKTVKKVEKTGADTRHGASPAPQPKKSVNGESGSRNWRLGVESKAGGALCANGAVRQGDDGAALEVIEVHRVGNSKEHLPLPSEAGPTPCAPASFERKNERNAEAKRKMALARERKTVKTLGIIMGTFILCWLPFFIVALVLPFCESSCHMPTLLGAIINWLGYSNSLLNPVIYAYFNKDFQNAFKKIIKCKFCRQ
experiment summary: ERK1/2 phosphorylation (HTRF) in HEK293 cells that overexpress the 5-HT1AR gene
Format: cell-based
study conditions: agonist mode, HEK293-5-HT1A cells; read-out: ERK1/2 EC50
property: EC50 (nM)

[
  {
    "compound": "Cl.O=[N+]([O-])c1ccc2nc(N3CCN(CC4CCC4)CC3)ccc2c1",
    "numeric value": 13.8
  },
  {
    "compound": "CC(=O)N1CCC(c2ccc(F)cc2)C(COc2ccc3c(c2)OCO3)C1 (stereo not shown) [N-Ac-Paroxetine, reference compound]",
    "numeric value": 4230
  },
  {
    "compound": "COc1ccc2cccc(N3CCN(CCNC(=O)c4ccc(F)cc4)CC3)c2c1.Cl [Compound S14506, reference compound]",
    "numeric value": 0.062
  },
  {
    "compound": "Fc1ccc([C@@H]2CCNC[C@H]2COc2ccc3c(c2)OCO3)cc1 [Paroxetine, paroxetine, reference compound]",
    "numeric value": 150
  }
]
